Please go through the items and note down their CC50 at 48 h.
# Method Notes: MTT cytotoxicity assay, non-cancer colon cells
# Assay type: cell-based
# Condition: human, NCM460 colonic epithelial cells (non-cancer cell line), n = 3, non-cancer cell line, read-out: CC50 ± SD NUM460
Field: numeric (µM). Do not append units.

Recorded CC50 at 48 h of NS(=O)(=O)c1ccc(N2N=C(c3ccc(Br)cc3)CC2c2ccc3c(c2)OCCO3)cc1 (stereo not shown) , please.
80.3

Recorded CC50 at 48 h of Cc1cc(C2=NN(c3ccc(S(N)(=O)=O)cc3)C(c3ccc4c(c3)OCCO4)C2)ccc1F (stereo not shown) , please.
104

Recorded CC50 at 48 h of NS(=O)(=O)c1ccc(N2N=C(c3ccccc3F)CC2c2ccc3c(c2)OCO3)cc1 (stereo not shown) , please.
137

Recorded CC50 at 48 h of Cc1ccc(C2=NN(c3ccc(S(N)(=O)=O)cc3)C(c3ccc4c(c3)OCO4)C2)cc1C (stereo not shown) , please.
129

Recorded CC50 at 48 h of NS(=O)(=O)c1ccc(N2N=C(c3cccc(F)c3)CC2c2ccc3c(c2)OCO3)cc1 (stereo not shown) , please.
82.8

Recorded CC50 at 48 h of Cc1ccc(C2=NN(c3ccc(S(N)(=O)=O)cc3)C(c3ccc4c(c3)OCO4)C2)cc1 (stereo not shown) , please.
134

Recorded CC50 at 48 h of COc1ccc(C2=NN(c3ccc(S(N)(=O)=O)cc3)C(c3ccc4c(c3)OCCO4)C2)cc1 (stereo not shown) , please.
110

Recorded CC50 at 48 h of NS(=O)(=O)c1ccc(N2N=C(c3ccc(F)cc3F)CC2c2ccc3c(c2)OCCO3)cc1 (stereo not shown) , please.
135

Recorded CC50 at 48 h of NS(=O)(=O)c1ccc(N2N=C(c3ccc(F)cc3)CC2c2ccc3c(c2)OCCO3)cc1 (stereo not shown) , please.
107

Recorded CC50 at 48 h of NS(=O)(=O)c1ccc(N2N=C(c3cccc(F)c3)CC2c2ccc3c(c2)OCCO3)cc1 (stereo not shown) , please.
150

Recorded CC50 at 48 h of NS(=O)(=O)c1ccc(N2N=C(c3ccccc3)CC2c2ccc3c(c2)OCCO3)cc1 (stereo not shown) , please.
138

Recorded CC50 at 48 h of NS(=O)(=O)c1ccc(N2N=C(c3ccccc3)CC2c2ccc3c(c2)OCO3)cc1 (stereo not shown) , please.
88.6

Recorded CC50 at 48 h of Cc1ccc(C2=NN(c3ccc(S(N)(=O)=O)cc3)C(c3ccc4c(c3)OCCO4)C2)cc1C (stereo not shown) , please.
137

Recorded CC50 at 48 h of NS(=O)(=O)c1ccc(N2N=C(c3ccc(Cl)cc3)CC2c2ccc3c(c2)OCCO3)cc1 (stereo not shown) , please.
94.7

Recorded CC50 at 48 h of NS(=O)(=O)c1ccc(N2N=C(c3cc(F)cc(F)c3)CC2c2ccc3c(c2)OCCO3)cc1 (stereo not shown) , please.
105

Recorded CC50 at 48 h of NS(=O)(=O)c1ccc(N2N=C(c3ccccc3F)CC2c2ccc3c(c2)OCCO3)cc1 (stereo not shown) , please.
178

Recorded CC50 at 48 h of CCOc1ccc(C2=NN(c3ccc(S(N)(=O)=O)cc3)C(c3ccc4c(c3)OCO4)C2)cc1 (stereo not shown) , please.
159

Recorded CC50 at 48 h of Cc1ccc(C2=NN(c3ccc(S(N)(=O)=O)cc3)C(c3ccc4c(c3)OCCO4)C2)cc1 (stereo not shown) , please.
68.7

Recorded CC50 at 48 h of Cc1cccc(C2=NN(c3ccc(S(N)(=O)=O)cc3)C(c3ccc4c(c3)OCO4)C2)c1 (stereo not shown) , please.
110

Recorded CC50 at 48 h of CCOc1ccc(C2=NN(c3ccc(S(N)(=O)=O)cc3)C(c3ccc4c(c3)OCCO4)C2)cc1 (stereo not shown) , please.
157

Recorded CC50 at 48 h of NS(=O)(=O)c1ccc(N2N=C(c3ccc(I)cc3)CC2c2ccc3c(c2)OCCO3)cc1 (stereo not shown) , please.
38

Recorded CC50 at 48 h of COc1cccc(C2=NN(c3ccc(S(N)(=O)=O)cc3)C(c3ccc4c(c3)OCO4)C2)c1 (stereo not shown) , please.
211

Recorded CC50 at 48 h of COc1cccc(C2=NN(c3ccc(S(N)(=O)=O)cc3)C(c3ccc4c(c3)OCCO4)C2)c1 (stereo not shown) , please.
178

Recorded CC50 at 48 h of NS(=O)(=O)c1ccc(N2N=C(c3ccc(I)cc3)CC2c2ccc3c(c2)OCO3)cc1 (stereo not shown) , please.
74.5

Recorded CC50 at 48 h of Cc1ccc(C2=NN(c3ccc(S(N)(=O)=O)cc3)C(c3ccc4c(c3)OCO4)C2)c(C)c1 (stereo not shown) , please.
155
